# maps each entry to its pKd
subject-of-test: T1, ERK2 (UniProt P28482 1-360)
T1 construct: The in vitro activity assay used active, phosphorylated pp-ERK2 (1 nM); also called extracellular signal-regulated kinase 2; MAPK; source: recombinantly expressed in Escherichia coli, purified according to Garai et al
procedure-text: fluorescence polarisation; competitive: complex of the MAPK with 50 nM Cf-RHDF at 60-80% complex formation titrated with increasing unlabeled peptide; 20 mM Tris pH 8.0, 100 mM NaCl, 0.05% Brij35, 2 mM TCEP; 384-well black plates; triplicates; constants are called Kd in Table 1 and Ki in the methods
condition-parameters: both partners purified
Primed or numbered codes have the meaning given here. The star is where a group is joined. Dabcyl′ = 4-((4-(dimethylamino)phenyl)azo)benzoyl, CN(C)c1ccc(/N=N/c2ccc(C(=O)*)cc2)cc1
# reply with the number alone; pKd is -log10 of concentration in mol/L

Record excerpt, results attached:
H-RRRPPWLRLDIRR-NH2 (peptide 6 with one more Arg at the N-terminus; source: synthetic peptide (Fmoc/tBu solid phase on Rink-amide MBHA resin, RP-HPLC purified)) [H-RRRPPWLRLDIRR-NH2 (peptide 8)] | 5.89
H-KKPPWLKLDI-NH2 (RHDF1 docking motif without the flanking regions SLQR (N-terminus) and PS (C-terminus); also called short peptide; truncated construct; source: synthetic peptide (Fmoc/tBu solid phase on Rink-amide MBHA resin, RP-HPLC purified)) [H-KKPPWLKLDI-NH2 (peptide 4)] | 4.82
H-RRPPWLRLDIRR-NH2 (peptide 5 extended at the C-terminus by two Arg; source: synthetic peptide (Fmoc/tBu solid phase on Rink-amide MBHA resin, RP-HPLC purified)) [H-RRPPWLRLDIRR-NH2 (peptide 6)] | 5.28

stdin: State the recorded pKd for this entry: H-SLQRKKPPWLKLDIPSC-NH2 (C-terminal cysteine that follows the 16 residues of the motif in the printed peptide; not part of the motif as printed in the text; The added Cys probably serves for conjugation (cysteine containing peptides were joined to chloroacetylated peptides); also called original peptide; source: synthetic peptide (Fmoc/tBu solid phase on Rink-amide MBHA resin, RP-HPLC purified)) [H-SLQRKKPPWLKLDIPSC-NH2 (peptide 1, RHDF1 linear binding motif)]
stdout: 5.74

stdin: Which pKd reading was recorded for the binder {Dabcyl′}-RRRPPWLRLDIRRK-NH2 (SMILES CC[C@H](C)[C@H](NC(=O)[C@H](CC(=O)O)NC(=O)[C@H](CC(C)C)NC(=O)[C@H](CCCNC(=N)N)NC(=O)[C@H](CC(C)C)NC(=O)[C@H](Cc1c[nH]c2ccccc12)NC(=O)[C@@H]1CCCN1C(=O)[C@@H]1CCCN1C(=O)[C@H](CCCNC(=N)N)NC(=O)[C@H](CCCNC(=N)N)NC(=O)[C@H](CCCNC(=N)N)NC(=O)c1ccc(/N=N/c2ccc(N(C)C)cc2)cc1)C(=O)N[C@@H](CCCNC(=N)N)C(=O)N[C@@H](CCCNC(=N)N)C(=O)N[C@@H](CCCCN)C(N)=O, peptide 8 with a Lys at the C-terminus and a Dabcyl group on the N-terminus; also called Dabcyl-containing peptide (unlabelled); source: synthetic peptide (Fmoc/tBu solid phase on Rink-amide MBHA resin, RP-HPLC purified)) [Dabcyl-RRRPPWLRLDIRRK-NH2 (peptide 10)] ?
stdout: 5.34

stdin: Requested read-out: pKd. Entry: H-RRPPWLRLDI-NH2 (source: synthetic peptide (Fmoc/tBu solid phase on Rink-amide MBHA resin, RP-HPLC purified)) [H-RRPPWLRLDI-NH2 (peptide 5)]
stdout: 4.71
